Biological target: human TRPV4 (Homo sapiens)
Sequence (Q9HBA0 whole entry): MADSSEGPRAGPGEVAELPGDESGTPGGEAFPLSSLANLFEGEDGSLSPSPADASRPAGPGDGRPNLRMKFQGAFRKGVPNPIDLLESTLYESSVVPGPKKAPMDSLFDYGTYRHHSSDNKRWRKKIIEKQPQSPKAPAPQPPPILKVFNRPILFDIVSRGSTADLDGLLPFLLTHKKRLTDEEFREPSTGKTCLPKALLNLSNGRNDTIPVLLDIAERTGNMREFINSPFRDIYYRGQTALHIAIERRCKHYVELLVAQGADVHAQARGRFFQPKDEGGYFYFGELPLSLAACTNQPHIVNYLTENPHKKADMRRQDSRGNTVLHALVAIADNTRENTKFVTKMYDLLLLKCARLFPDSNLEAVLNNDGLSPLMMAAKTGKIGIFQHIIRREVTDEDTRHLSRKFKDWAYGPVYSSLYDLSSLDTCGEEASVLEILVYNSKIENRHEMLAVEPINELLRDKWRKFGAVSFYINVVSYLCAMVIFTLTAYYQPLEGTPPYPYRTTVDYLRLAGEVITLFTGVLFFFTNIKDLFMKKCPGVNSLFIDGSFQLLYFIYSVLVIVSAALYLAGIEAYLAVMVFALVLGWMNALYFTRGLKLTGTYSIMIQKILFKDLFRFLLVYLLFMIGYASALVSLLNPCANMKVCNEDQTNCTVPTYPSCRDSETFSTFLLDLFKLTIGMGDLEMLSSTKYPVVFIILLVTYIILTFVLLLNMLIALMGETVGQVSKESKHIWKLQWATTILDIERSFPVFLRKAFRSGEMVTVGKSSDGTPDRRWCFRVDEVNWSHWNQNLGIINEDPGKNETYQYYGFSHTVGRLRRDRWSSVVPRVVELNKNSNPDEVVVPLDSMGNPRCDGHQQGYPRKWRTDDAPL
Experiment: Ligand-gated assay (Fluo4 calcium, FLIPR; inhibition of agonist-induced activation)
Settings: HEK-293-MSR-II cells transduced with BacMam human TRPV4; agonist at EC80
Please go through the items and note down their IC50.

Solved cases below.
CC(C)(C)c1coc(N2C[C@@]3(CCC[C@](C)(Cn4cnc5ccc(C#N)cc54)C3)OC2=O)n1 :: 10 to 50 nM
Cc1cnc(N2C[C@@]3(CCC[C@](C)(Cn4cnc5ccc(C#N)cc54)C3)OC2=O)c(C)n1 :: 50 to 500 nM
CC(C)(CN1C[C@@]2(CCC[C@H](Cn3cnc4ccc(C#N)cc43)C2)OC1=O)c1nc(C2CCOCC2)no1 :: 10 to 50 nM

query: Note down IC50 recorded for C[C@]1(Cn2cnc3ccc(C#N)cc32)CCC[C@@]2(CN(c3ncc(Cl)cc3F)C(=O)O2)C1
result: 0.1 to 10 nM

From: patent US9187464B2
